Below, each of the molecules is paired with its reported pEC50 value.
- experimental_target: TGF-beta receptor type-1 (Homo sapiens)
- Sequence (P36897 whole entry): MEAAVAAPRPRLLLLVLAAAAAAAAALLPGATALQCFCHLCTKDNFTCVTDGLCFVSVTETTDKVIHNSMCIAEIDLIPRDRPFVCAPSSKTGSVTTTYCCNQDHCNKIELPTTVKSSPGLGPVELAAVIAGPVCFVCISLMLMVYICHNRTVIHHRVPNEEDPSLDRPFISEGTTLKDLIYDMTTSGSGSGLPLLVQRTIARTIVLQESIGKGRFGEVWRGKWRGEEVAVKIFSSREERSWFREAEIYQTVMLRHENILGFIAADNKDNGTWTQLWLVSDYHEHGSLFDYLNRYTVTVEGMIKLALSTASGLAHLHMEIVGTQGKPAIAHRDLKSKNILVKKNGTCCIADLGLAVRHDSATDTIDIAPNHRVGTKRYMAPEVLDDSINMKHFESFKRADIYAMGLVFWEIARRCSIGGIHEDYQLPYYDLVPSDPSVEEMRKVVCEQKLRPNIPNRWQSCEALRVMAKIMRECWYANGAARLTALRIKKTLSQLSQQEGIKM
- assay_method_text: Inhibition of TGFbeta receptor in human HaCaT cells assessed as Smad phosphorylation by ELISA
pEC50: −log10 of the molar value.
test_readout: pEC50

INSERT INTO results (smiles_structure, comparator, val) VALUES
  ('CCNC(=O)c1ccc2c(c1)NC(=O)/C2=C(\Nc1ccc(CN2CCCCC2)cc1)c1ccccc1', '=', 7.12),
  ('CCN(C)C(=O)c1ccc2c(c1)NC(=O)/C2=C(\Nc1ccc(N(C)S(C)(=O)=O)cc1)c1ccccc1', '<', 5.00),
  ('CCN(C)C(=O)c1ccc2c(c1)NC(=O)/C2=C(\Nc1ccc(CCN(C)C)cc1)c1ccccc1', '=', 6.59),
  ('CN(C)C(=O)c1ccc2c(c1)/C(=C(/Nc1ccc(CN3CCCCC3)cc1)c1ccccc1)C(=O)N2', '=', 6.70),
  ('NC(=O)c1ccc2c(c1)NC(=O)/C2=C(\Nc1ccc(CN2CCCCC2)cc1)c1ccccc1', '<', 4.30),
  ('CN(C)C(=O)c1ccc2c(c1)NC(=O)/C2=C(\Nc1ccc(CN2CCCCC2)cc1)c1ccccc1', '=', 6.61),
  ('CCCCNC(=O)c1ccc2c(c1)NC(=O)/C2=C(\Nc1ccc(CN2CCCCC2)cc1)c1ccccc1', '=', 5.97),
  ('CCN(C)C(=O)c1ccc2c(c1)NC(=O)/C2=C(\Nc1ccc(N(CCCN(C)C)C(C)=O)cc1)c1ccccc1', '=', 6.39),
  ('CCN(C)C(=O)c1ccc2c(c1)NC(=O)/C2=C(\Nc1ccc(N(CCN(C)C)S(C)(=O)=O)cc1)c1ccccc1', '=', 6.68),
  ('O=C1Nc2cc(C(=O)N3CCCC3)ccc2/C1=C(/Nc1ccc(CN2CCCCC2)cc1)c1ccccc1', '=', 6.16),
  ('CCNC(=O)c1ccc2c(c1)NC(=O)/C2=C(\Nc1ccc(CN(C)C)cc1)c1ccccc1', '=', 6.73),
  ('CCN(C)C(=O)c1ccc2c(c1)NC(=O)/C2=C(\Nc1ccc(N(C)C(=O)CN2CCN(C)CC2)cc1)c1ccccc1', '=', 6.08),
  ('CCN(C)C(=O)c1ccc2c(c1)NC(=O)/C2=C(\Nc1ccc(N(C)C(=O)CN(C)C)cc1)c1ccccc1', '=', 6.42),
  ('CCNC(=O)c1ccc2c(c1)NC(=O)/C2=C(\Nc1ccc(N(CCCN(C)C)C(C)=O)cc1)c1ccccc1', '=', 5.90),
  ('CCNC(=O)c1ccc2c(c1)NC(=O)/C2=C(\Nc1ccc(N(CCN(C)C)C(C)=O)cc1)c1ccccc1', '=', 5.97),
  ('CCN(C)C(=O)c1ccc2c(c1)NC(=O)/C2=C(\NC1CCCCC1)c1ccccc1', '<', 5.00),
  ('CCNC(=O)c1ccc2c(c1)NC(=O)/C2=C(\Nc1ccc(N(CCN(C)C)S(C)(=O)=O)cc1)c1ccccc1', '=', 6.97);
